# ASSAY_SYSTEM: Regulator of G-protein signaling 8 (Homo sapiens)
# Sequence (P57771 whole entry): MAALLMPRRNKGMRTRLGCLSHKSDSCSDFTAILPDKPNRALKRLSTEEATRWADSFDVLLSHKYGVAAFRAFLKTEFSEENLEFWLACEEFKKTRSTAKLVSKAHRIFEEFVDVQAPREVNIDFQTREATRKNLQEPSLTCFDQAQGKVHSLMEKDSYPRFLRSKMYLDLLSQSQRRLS
# EXPERIMENTAL_PROTOCOL: RGS8-Galphao interaction modulators, SAR follow-up, biochemical, multiplex bead flow cytometry, SAR compounds (AID 2307)
ASSAY_READOUT: pEC50
FYI, pEC50 means -log10 of a concentration in mol per litre.

Exercise: What does the record list as pEC50 for CC(=O)OCCCNc1cc(Sc2nc3ccccc3s2)c2nonc2c1[N+](=O)[O-] ?
Key: 7.07

Exercise: // lookup pEC50 for CN=c1scc(C)n1N=Cc1ccc(O)c(O)c1O
Key: 6.50

Exercise: Given the molecule NS(=O)(=O)c1ccc(N=NCc2ccc(O)c(O)c2O)c([N+](=O)[O-])c1 , what is its reported pEC50?
Key: 7.54

###

# ASSAY_SYSTEM: UniProt P57771
# EXPERIMENTAL_PROTOCOL: RGS8-Galphao interaction modulators, SAR follow-up, biochemical, multiplex bead flow cytometry, SAR compounds (AID 2307)
ASSAY_READOUT: EC50 (µM)
// units = µM; emit number, no label

Cc1[nH]n(-c2ccccc2)c(=S)c1C=NCCCN=Cc1c(C)[nH]n(-c2ccccc2)c1=S ... 0.522
Cc1[nH]n(-c2ccccc2)c(=S)c1/C=N/c1cccc([N+](=O)[O-])c1 ... 0.218
O=C(COc1ccccc1C(=O)NN=Cc1ccc(O)c(O)c1)NN=Cc1ccc(O)c(O)c1 ... 0.123
Cc1cccc(N2CCN(C(=O)Cn3sc4nc(C)cc(C)c4c3=O)CC2C)c1 (stereo not given) ... 0.55

Kindly consider the entry below.
Exercise: If you can, please state the reported EC50 value of O=C(Cc1csc(N2CCOCC2)n1)NN=Cc1ccc(O)c(O)c1O .
Key: 0.384

###

This listing pairs molecules with measured pEC50.
# ASSAY_SYSTEM: Regulator of G-protein signaling 8 (Homo sapiens)
# EXPERIMENTAL_PROTOCOL: RGS8-Galphao interaction modulators, SAR follow-up, biochemical, multiplex bead flow cytometry, SAR compounds (AID 2307)
Here pEC50 is given on a logarithmic scale as minus log10 of the concentration in mol/L.

Below: 2 molecules and their reported pEC50.
CCN(CC)S(=O)(=O)c1cccc(-c2n[nH]c(=S)n2N=Cc2ccc(C(=O)OC)cc2)c1 ... 5.50
COc1ccc(C2=CC(=O)C=CC2=O)cc1 [MLS001029846] ... 6.75

For the next question, use this molecule.
Exercise: Can you look up the measured pEC50 of O=c1c2ccccc2sn1-c1ccc(S(=O)(=O)N2CCCC2)cc1 for me?
Key: 7.54
